Biological target: Recombinant human cathepsin A (Homo sapiens, UniProt P10619)
Construct: Recombinant human cathepsin A (residues 29-480, with a C-terminal 10-His tag); 10-His (C)
Sequence (P10619 29-326 limits assumed): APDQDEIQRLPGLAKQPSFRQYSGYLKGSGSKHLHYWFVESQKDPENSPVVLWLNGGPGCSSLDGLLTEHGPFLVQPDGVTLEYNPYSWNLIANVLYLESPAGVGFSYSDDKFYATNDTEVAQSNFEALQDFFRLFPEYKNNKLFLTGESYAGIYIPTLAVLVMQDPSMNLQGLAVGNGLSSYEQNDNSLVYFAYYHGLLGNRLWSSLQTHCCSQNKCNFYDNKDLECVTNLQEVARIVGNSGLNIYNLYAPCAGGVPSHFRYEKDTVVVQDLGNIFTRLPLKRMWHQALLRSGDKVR
Sequence (P10619 327-480 limits assumed): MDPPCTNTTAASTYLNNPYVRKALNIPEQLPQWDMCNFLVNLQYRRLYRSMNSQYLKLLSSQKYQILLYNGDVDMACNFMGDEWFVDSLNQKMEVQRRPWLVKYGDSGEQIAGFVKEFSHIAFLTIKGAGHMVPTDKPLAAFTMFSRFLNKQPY
Test: Cathepsin A inhibitory activity
Conditions: activated recombinant human cathepsin A 833 ng/ml, Bodipy FL-labeled bradykinin substrate 2 μM, pH 5.5, room temperature
Entries annotated with measured pIC50
Scale note: pIC50 = -log10(concentration in M).

Some solved cases for reference:
COc1cccc([C@H](CC(=O)O)NC(=O)c2csc(-c3ccccc3F)n2)c1 [Example 85] : 6.06
O=C(O)C[C@H](NC(=O)c1csc(-c2cccc(Cl)c2)n1)c1cccc(Cl)c1Cl [Example 89] : 5.99
O=C(O)C[C@H](NC(=O)c1nc(-c2ccccc2)cs1)c1ccc(F)cc1 [Example 51] : 6.34
O=C(O)C[C@H](NC(=O)c1csc(-c2ccccc2F)n1)c1ccccc1Cl [Example 30] : 6.42
O=C(O)C[C@H](NC(=O)c1csc(-c2ccccc2)n1)c1ccccc1C(F)(F)F [Example 62] : 5.58

INPUT: For the compound O=C(O)C[C@H](NC(=O)c1csc(-c2ccccc2F)n1)c1ccccc1 [Example 88] , give its measured pIC50 value.
OUTPUT: 6.03

INPUT: Using the record for O=C(O)C[C@H](NC(=O)c1csc(-c2ccccc2F)n1)c1ccc(F)cc1 [Example 56] , state its measured pIC50.
OUTPUT: 5.98
